Overview of reported pest or weed control at 1000 g/ha across a group of molecules:
Test system: Euphorbia heterophylla (EPHHL)
Assay: Post-emergence efficacy, glasshouse
Format: in vivo
Settings: Euphorbia heterophylla, post-emergence, 312 h; Application Rate 1000 g/Ha; evaluated after 13 days; 100=total damage to plant, 0=no damage to plant; read-out: Control of weed species after post-emergence application, EPHHL
Description: Seeds of a variety of test species were sown in standard soil in pots. […] The test plants were then grown in a glasshouse under controlled conditions (at 24/16° C., day/night; 14 hours light; 65% humidity) and watered twice daily. After 13 days the test was evaluated (100=total damage to plant; 0=no damage to plant). […]
Field: numeric (%). Do not append units.

C[n+]1cc(C(=O)[N-]S(C)(=O)=O)c2ccccc2n1 ... 90
CCOP(=O)(O)c1c[n+](CCO)nc2ccccc12 ... 100
C[n+]1cc(C(=O)[N-]S(=O)(=O)c2ccc(Cl)s2)c2ccccc2n1 ... 20

The molecule C[n+]1nc2ccccc2c(C(=O)[O-])c1-c1ccccc1 showed pest or weed control at 1000 g/ha equal to 100

The molecule C[n+]1cc(C(=O)O)c2ccccc2n1 [Compound A29] showed pest or weed control at 1000 g/ha equal to 80

The molecule CC(C)P(=O)([O-])c1c[n+](C)nc2ccccc12 showed pest or weed control at 1000 g/ha equal to 100

The molecule C[n+]1cc(C(=O)[O-])c2ccccc2n1 showed pest or weed control at 1000 g/ha equal to 70

The molecule O=C(O)C[n+]1cc(C(=O)[O-])c2ccccc2n1 showed pest or weed control at 1000 g/ha equal to 20

The molecule C[n+]1cc(C(=O)[N-]S(=O)(=O)C(F)(F)F)c2ccccc2n1 showed pest or weed control at 1000 g/ha equal to 30

The molecule Cn1ncnc1NC(=O)c1c[n+](C)nc2ccccc12 showed pest or weed control at 1000 g/ha equal to 20

====

Tested on: Lolium perenne (LOLPE)
Assay: Post-emergence efficacy, glasshouse
Assay type: in vivo
Settings: Lolium perenne, post-emergence, 312 h; Application Rate 1000 g/Ha; evaluated after 13 days; 100=total damage to plant, 0=no damage to plant; read-out: Control of weed species after post-emergence application, LOLPE
quantity.name: pest or weed control at 1000 g/ha (%)
Field: numeric (%). Do not append units.

The compound C[n+]1cc(S(=O)(=O)[O-])c2ccccc2n1 [Compound A6, 2-methylcinnolin-2-ium-4-sulfonate] showed pest or weed control at 1000 g/ha equal to 10

====

Test system: Chenopodium album (CHEAL)
Assay: Post-emergence efficacy, glasshouse
Assay type: in vivo
Conditions: Chenopodium album, post-emergence, 312 h, Application Rate 500 g/Ha; evaluated after 13 days; 100=total damage to plant, 0=no damage to plant; read-out: Control of weed species after post-emergence application, CHEAL
Overview of reported pest or weed control at 500 g/ha across a group of compounds:
Field: numeric (%). Do not append units.

C[n+]1cc(CCC(=O)O)c2ccccc2n1 [Compound A56, 2,2,2-trifluoroacetate] ... 90
COC(=O)CC[n+]1cc(C(=O)[N-]S(=O)(=O)C2CC2)c2ccccc2n1 [Compound A19] ... 60
CCOC(=O)Cc1c[n+](C)nc2ccccc12 [Compound A52, 2,2,2-trifluoroacetate] ... 60

The compound CCOP(=O)([O-])c1c[n+](C(C)(C)C)nc2ccccc12 [Compound A75] showed pest or weed control at 500 g/ha equal to 50

====

System: Digitaria sanguinalis (DIGSA)
Assay: Post-emergence efficacy, glasshouse
Assay type: in vivo
Conditions: Digitaria sanguinalis, post-emergence, 312 h; Application Rate 1000 g/Ha; evaluated after 13 days; 100=total damage to plant, 0=no damage to plant; read-out: Control of weed species after post-emergence application, DIGSA
Overview of reported pest or weed control at 1000 g/ha across a group of compounds:
Field: numeric (%). Do not append units.

Consider the following illustrative entries.
C[n+]1cc(SCC(=O)O)c2ccccc2n1 ... 30
CN(C)S(=O)(=O)[N-]C(=O)c1c[n+](C)nc2ccccc12 ... 40
C[n+]1cc(C(=O)[N-]S(=O)(=O)c2ccc(F)cc2)c2ccccc2n1 ... 30
O=P([O-])(O)c1c[n+](CCO)nc2ccccc12 ... 90
CCCCCCCC[n+]1cc(C(=O)[N-]S(C)(=O)=O)c2ccccc2n1 ... 20
C[n+]1cc(C(=O)[N-]S(=O)(=O)c2ccccc2)c2ccccc2n1 ... 10

The compound CCCP(=O)([O-])c1c[n+](C)nc2ccccc12 showed pest or weed control at 1000 g/ha equal to 100

The compound CCCC[n+]1cc(C(=O)[N-]S(C)(=O)=O)c2ccccc2n1 showed pest or weed control at 1000 g/ha equal to 40

The compound C[n+]1cc(C(=O)[N-]c2nnn[nH]2)c2ccccc2n1 showed pest or weed control at 1000 g/ha equal to 10

====

Tested on: Lolium perenne (LOLPE)
Assay: Post-emergence efficacy, glasshouse
Format: in vivo
Details: Lolium perenne, post-emergence, 312 h; Application Rate 1000 g/Ha; evaluated after 13 days; 100=total damage to plant, 0=no damage to plant; read-out: Control of weed species after post-emergence application, LOLPE
Given measured pest or weed control at 1000 g/ha, output class 1 if it is greater than or equal to 10% and class 0 if not.

Exam item: Does pest or weed control at 1000 g/ha meet or surpass 10% for C[n+]1cc(C(=O)[N-]S(=O)(=O)C2CC2)c2ccccc2n1 [Compound A12] ?
Marked response: class 1

====

Tested on: Euphorbia heterophylla (EPHHL)
Assay: Post-emergence efficacy, glasshouse
Format: in vivo
Conditions: Euphorbia heterophylla, post-emergence, 312 h, Application Rate 500 g/Ha; evaluated after 13 days; 100=total damage to plant, 0=no damage to plant; read-out: Control of weed species after post-emergence application, EPHHL
quantity.name: pest or weed control at 500 g/ha (%)
Field: numeric (%). Do not append units.

Consider the following illustrative entries.
CC(C)OP(=O)([O-])c1c[n+](C(C)C)nc2ccccc12 [Compound A76] ... 100
COC(=O)CC[n+]1cc(C(=O)[N-]S(=O)(=O)C2CC2)c2ccccc2n1 [Compound A19] ... 40
CCOP(=O)(O)c1c[n+](CCO)nc2ccccc12 [Compound A69] ... 100
CCOC(=O)Cc1c[n+](C)nc2ccccc12 [Compound A52, 2,2,2-trifluoroacetate] ... 40

Case CCOP(=O)(O)CCc1c[n+](C)nc2ccccc12 [Compound A54, 2,2,2-trifluoroacetate] , Euphorbia heterophylla (EPHHL), pest or weed control at 500 g/ha recorded as 80

====

Test system: Lolium perenne (LOLPE)
Test: Post-emergence efficacy, glasshouse
Assay type: in vivo
Settings: Lolium perenne, post-emergence, 312 h; Application Rate 1000 g/Ha; evaluated after 13 days; 100=total damage to plant, 0=no damage to plant; read-out: Control of weed species after post-emergence application, LOLPE
quantity.name: pest or weed control at 1000 g/ha (%)
Field: numeric (%). Do not append units.

The compound CS(=O)(=O)[N-]C(=O)c1c[n+](CC(F)F)nc2ccccc12 [Compound A14] showed pest or weed control at 1000 g/ha equal to 0

The compound Cn1ncnc1NC(=O)c1c[n+](C)nc2ccccc12 [Compound A25] showed pest or weed control at 1000 g/ha equal to 10

The compound CNS(=O)(=O)[N-]C(=O)c1c[n+](C)nc2ccccc12 [Compound A10] showed pest or weed control at 1000 g/ha equal to 30

The compound C[n+]1cc(C(=O)O)c2ccccc2n1 [Compound A3] showed pest or weed control at 1000 g/ha equal to 20

The compound Cn1nnnc1[N-]C(=O)c1c[n+](C)nc2ccccc12 [Compound A16] showed pest or weed control at 1000 g/ha equal to 10

The compound C[n+]1cc(C(=O)[N-]S(=O)(=O)c2ccc(F)cc2)c2ccccc2n1 [Compound A38] showed pest or weed control at 1000 g/ha equal to 0

====

Tested on: Setaria faberi (SETFA)
Experiment: Post-emergence efficacy, glasshouse
Format: in vivo
Conditions: Setaria faberi, post-emergence, 312 h; Application Rate 1000 g/Ha; evaluated after 13 days; 100=total damage to plant, 0=no damage to plant; read-out: Control of weed species after post-emergence application, SETFA
Exam item: assign 1 to entries whose pest or weed control at 1000 g/ha is below 50% and 0 to entries at or above 50%. Note that a value of exactly 50% receives 0.

O=C(O)c1c[n+](CCO)nc2ccccc12 ... 0
CCCP(=O)([O-])c1c[n+](C)nc2ccccc12 ... 0
C[C@@H](NC(=O)c1c[n+](C)nc2ccccc12)C(=O)OC(C)(C)C ... 1
COC(=O)CC[n+]1cc(C(=O)[N-]S(C)(=O)=O)c2ccccc2n1 ... 1
COP(=O)(OC)c1c[n+](CCOS(=O)(=O)[O-])nc2ccccc12 ... 1

Exam item: pest or weed control at 1000 g/ha under 50%? Item: CCCCCCCC[n+]1cc(C(=O)[N-]S(C)(=O)=O)c2ccccc2n1
Marked response: 1

Exam item: pest or weed control at 1000 g/ha under 50%? Item: C[n+]1cc(C(=O)[N-]S(C)(=O)=O)c2ccccc2n1
Marked response: 0
